Tested on: A549/ATCC NSCLC
Assay name: NCI-60 one-dose screen, 48 h (100 = growth as untreated, 0 = no growth, -100 = all killed)
Measurement setup: 10 µM unless noted
The panel holds about 83,000 compounds, 20% with a hit somewhere; the sample as a whole holds those more often.
Assay metric: growth (%)
Report the figure in % without appending any unit label.

Record CCOC(=O)C1=NN(c2ccc(Cl)cc2)C2C3N(c4ccc(Cl)cc4)N=C(C(=O)OCC)N3c3ccccc3N12 (stereo not given) . Reported growth: 99

The compound OC(CCC(O)(c1ccccc1)c1ccccc1)(c1ccccc1)c1ccccc1 showed growth equal to 68.7

growth for c1cnc2n[nH]c(Nc3ncnc4c3sc3ncccc34)c2c1 is 87.3

Documented growth of CCc1[nH]nc(-c2ccc(OC)cc2)c1-c1ccccc1OCCN(CC)CC : 93.2

Sample CC1=CC(=O)C(C(C)=Nc2ccccc2Cl)C(=O)O1 (stereo not given) ; growth observed: 116

###

Tested on: BT-549 breast
Assay name: NCI-60 one-dose screen, 48 h (100 = growth as untreated, 0 = no growth, -100 = all killed)
Measurement setup: 10 µM unless noted
This is part of a sample that, as a whole, favours compounds with a hit. Of some 83,000 tested, about 20% had one in any assay.
Label scheme for growth: lower than 90% is NO, 90% and above is YES.

Q: Can COc1ccc2c(c1)nc(N)c1c3cc(C)c(C)cc3cn21 be said to have growth at or above 90%?
Ans: YES

Q: Kindly determine if growth recorded for Cc1ccc2c(c1)C(=O)/C(=C/c1ncc([N+](=O)[O-])n1C)O2 is above or exactly 90%.
Ans: NO

Q: Is growth for Cn1cc(-c2nc(-c3c[nH]c4ncccc34)cs2)c2cccnc21 at or above 90%?
Ans: NO

Q: For this compound, is measured growth 90% or higher? COc1cc2c(cc1OCCCOc1ccc(-c3cc4ccccc4c4ccccc34)cc1)N=C[C@@H]1CCCN1C2=O
Ans: NO

Q: Is the recorded value of growth equal to or greater than 90% for this compound? CC(=O)n1c2ccccc2c2ccccc21
Ans: YES

Q: API: above_or_equal(metric=growth, cutoff=90%) for item CN(C(=O)c1ccccc1)N(C)C(=O)c1ccccc1
Ans: YES

Q: API: above_or_equal(metric=growth, cutoff=90%) for item CCOc1cccc(C2CC(=O)Nc3cc4c(cc32)OCO4)c1 (stereo unspecified)
Ans: NO

Q: Does the reported growth for COc1ccc(C(=O)Nc2nc(-c3ccc(Cl)cc3)cs2)cc1 fall at or above the 90% mark?
Ans: YES

Q: Is it the case that CO[C@H]1/C=C/O[C@@]2(C)Oc3c(C)c(O)c4c(O)c(c(/C=N/N5C(C)CN(Cc6ccccc6)CC5C)c(O)c4c3C2=O)NC(=O)/C(C)=C\C=C\[C@H](C)[C@H](O)[C@@H](C)[C@@H](O)[C@@H](C)[C@H](OC(C)=O)[C@@H]1C (stereo partly specified) has growth reaching or exceeding 90%?
Ans: YES

Q: Could you please find out whether COc1ccc(C(=O)COc2cccc(/C=C3\Oc4ccc5ccccc5c4C3=O)c2)cc1 has growth that meets 90% or exceeds it?
Ans: NO

Q: Kindly determine if growth recorded for O=C(NCCc1ccccc1)C1CCC(=O)N1Cc1ccc(Br)cc1 (stereo unspecified) is above or exactly 90%.
Ans: YES

Q: Check the entry C/C(=N\N1CC(=O)NC1=O)c1ccc([N+](=O)[O-])o1 : does growth equal or exceed 90%?
Ans: YES

Q: Given O=C(Nc1ccncc1)C(=O)c1cn(S(=O)(=O)c2cccc(F)c2)c2ccccc12 , state whether its growth is at least 90%.
Ans: NO

Q: Reported growth reaches at least 90% for CCCCCCCCCCCCCCCCCC1=NC(C)(C)CN1CCO ?
Ans: NO

Q: Decide: growth of O=C1NCN(CCO)CN1 >= 90%?
Ans: NO

Q: Hi team, for O=C(CCc1nnc2sc(-c3ccc(Cl)cc3Cl)nn12)c1nc2ccccc2[nH]1 , is the recorded growth at or above 90%?
Ans: NO

Q: Can Cc1c(C(N)=O)sc2c1C(=O)N(Cc1ccccc1)C1=NN=C(c3ccc(Cl)cc3)CN12 be said to have growth at or above 90%?
Ans: NO

Q: Dear colleague, could you confirm whether Cc1cc2c(cc1C)Nc1sc(NC(=O)CN3CCN(C)CC3)nc1C(=O)N2 has growth at or above 90%?
Ans: YES

Q: Assess whether reported growth for Nc1ccc2c(c1)/C(=N/O)c1cc([N+](=O)[O-])ccc1-2 sits at 90% or higher.
Ans: NO

###

Tested on: A498 renal
Assay name: NCI-60 one-dose screen, 48 h (100 = growth as untreated, 0 = no growth, -100 = all killed)
Measurement setup: 10 µM unless noted
About 83,000 compounds went through this panel and 20% of them were active in at least one assay; those are over-represented in the sample as a whole.
Assay metric: growth (%)
Field format: number, assumed %, no unit text.

Data point: Cc1cc(C(C)(C)c2cc(C)c(O)c(CN(C)C)c2)cc(CN(C)C)c1O ; growth = 69.5

Value of measured growth for the entry Cc1nn(-c2ccccc2)c2nc3c(nc12)C(=O)CCC3 : 81.7

// growth value for CCC[C@H](N[C@@H](C)C(=O)N1[C@H](C(=O)O)C[C@@H]2CCCC[C@@H]21)C(=O)OCC : 98.9

Measured growth, Oc1ccccc1C=Nc1ccccc1N=Cc1ccccc1O.[Cu+2] : 92.8

growth in this record for COc1cc2c(C#N)n3c(c2cc1OC)C(=O)C(c1ccccc1)Oc1ccccc1-3 (stereo not given) : 52.4

###

Test system: ACHN renal
Assay name: NCI-60 one-dose screen, 48 h
Measurement setup: 10 µM unless noted
Protocol: Growth inhibition of the ACHN human tumor cell line is measured as a screen for anti-cancer activity. Cells are grown in 96 well plates and exposed to the test compound for 48 hours. Compounds are tested at a single concentration, which is 10^-5 M for most compounds. The reported endpoint is percent growth (GI% or GIPRCNT), where numbers from 0 - 100% represent growth inhibition, and numbers from -100% - 0 represent cell death. For example, a value of 40 represents 60% growth inhibition. […]
This is part of a sample that, as a whole, favours compounds with a hit. Of some 83,000 tested, about 20% had one in any assay. Active and inactive are the calls of the source. How the source made its calls: active means growth percent below 10; inactive means the rest.
Write down one outcome, taken from active, inactive

Q: How was O=C1Nc2ccc(F)cc2/C1=C/c1nc(-c2ccc(F)cc2)n2ccccc12 classified in this test?
Ans: inactive

Q: Could you kindly confirm the outcome this assay logged for COc1ccc2c(c1)[nH]c(=O)c1c3cc(OC)c(OC)cc3cn21 ?
Ans: inactive

Q: Record lookup: outcome of this test for CC(CCC(=O)O)(NC(=O)c1ccc([N+](=O)[O-])cc1)C(=O)O (stereo not drawn) ?
Ans: inactive

Q: Just curious, what result did O=NC1CC=CCC1c1ccccc1 (stereo not drawn) get here?
Ans: inactive

Q: Call for entry C=C(C)[C@@H]1C/C=C(/C=O)CC[C@@H]2O[C@@]2(C)CC/C=C(\C)CC1 :
Ans: inactive

Q: Could you please tell me the result logged for O=C1OCC/C1=C\OCCCO/C=C1\CCOC1=O in this assay?
Ans: inactive

Q: What was the test verdict on S=C(c1ccccc1)N1CCN(c2cccc(Cl)c2)CC1 ?
Ans: inactive

Q: Assay result, entry CN(CC(=O)N(Cc1ccc(C2CCCCC2)cc1)c1ccc(C(=O)O)cc1)S(=O)(=O)c1c(F)c(F)c(F)c(F)c1F — outcome?
Ans: inactive

Q: Per the records of this test, what outcome belongs to CC/C=C\C=C/C(=O)N/C=C/CC1Cc2cccc(O)c2C(=O)O1 (stereo not drawn) ?
Ans: inactive

Q: Check the results log: what was the call for CCCCCCCCCCCCCCCCCC1=NC(C)(C)CN1CCO ?
Ans: active

Q: Give the logged outcome of this assay for the following compound: Cc1ccsc1/C=C/C1=NCCCN1C
Ans: inactive

Q: What outcome does the record of this test show for N#CCCN(CCO)c1ccccc1 ?
Ans: inactive

Q: Lab log entry: Cn1cc(-c2csc(-c3cn(C)c4ncccc34)n2)c2cc(F)cnc21 — outcome as called in the assay?
Ans: inactive

Q: Dear all, I need the recorded test outcome for CN1COc2ccc3ccccc3c2C1 , thank you.
Ans: inactive

Q: // param item: CC(C)(C)c1ccc(S(=O)(=O)O)s1 ; yields the recorded call
Ans: inactive

Q: Recorded call for Nc1ccc(C2=Nc3cccc4cccc(c34)S2)cc1 ?
Ans: inactive

Q: Recorded test call requested for COc1ccc(-c2nnc(COc3ccc(NC(=O)Nc4cc(C(F)(F)F)cc(C(F)(F)F)c4)cc3F)o2)cc1
Ans: inactive

Q: Called result for O=C(Nc1cccc(C(F)(F)F)c1)Nc1ccc(OCc2nnc(-c3ccc(Cl)cc3)o2)c(F)c1
Ans: inactive

Q: # outcome recorded in this test, key = c1cnc2n[nH]c(Nc3ncnc4c3sc3ncccc34)c2c1
Ans: inactive

Q: Called result for CCCCCCCCCCCCCCCCN=C(CC(=O)O)C(=O)O
Ans: inactive

Q: Per the assay record, what outcome was assigned to OCCOc1c(Cl)cc(Cl)cc1Cl ?
Ans: inactive

Q: Assay result, entry COc1ccc(-c2nc3sccn3c2-c2ccnc(S(C)(=O)=O)n2)cc1 — outcome?
Ans: inactive

Q: Could you kindly confirm the outcome this assay logged for CC(=O)Oc1ccc(C2OC(c3ccc4ccccc4c3OC(C)=O)=NN2C(C)=O)c(OC(C)=O)c1 (stereo not drawn) ?
Ans: inactive
